Origin of the recorded values: paper PMC6289772

# protocol: Axitinib plasma pharmacokinetics, phase 1 trial
# Assay type: in vivo
# test parameters: human, plasma, oral, 3.2 mg/m2, AUC0–8h, median (range); Dose Level 3.2 mg/m^2, Day 1 (n=6)
quantity kind: AUC(0-t) (ng·h/mL)

- compound: "CNC(=O)c1ccccc1Sc1ccc2c(/C=C/c3ccccn3)n[nH]c2c1 [Axitinib]"
  quantity kind: "AUC(0-t)"
  display unit: "ng·h/mL"
  reported measurement: 134

----------
# protocol: Axitinib plasma pharmacokinetics, phase 1 trial
# Type: in vivo
# test parameters: human, plasma, oral, 2.4 mg/m2, Tmax, median (range); Dose Level 2.4 mg/m^2, Day 8 (n=12)

- chemical smiles: "CNC(=O)c1ccccc1Sc1ccc2c(/C=C/c3ccccn3)n[nH]c2c1"
  display unit: "h"
  Tmax: 1.5

----------
# protocol: Axitinib plasma pharmacokinetics, phase 1 trial
# Format: in vivo
# test parameters: human, plasma, oral, 3.2 mg/m2, AUC0–8h, median (range); Dose Level 3.2 mg/m^2, Day 8 (n=5)

- chemical smiles: "CNC(=O)c1ccccc1Sc1ccc2c(/C=C/c3ccccn3)n[nH]c2c1"
  AUC(0-t) [ng·h/mL]: 140

----------
# protocol: Axitinib plasma pharmacokinetics, phase 1 trial
# Format: in vivo
# test parameters: human, plasma, oral, half-life (range), all patients

- chemical smiles: "CNC(=O)c1ccccc1Sc1ccc2c(/C=C/c3ccccn3)n[nH]c2c1"
  half-life: "0.7 to 5.2 h"

----------
# protocol: Axitinib plasma pharmacokinetics, phase 1 trial
# Format: in vivo
# test parameters: human, plasma, oral, 3.2 mg/m2, Half life, median (range); Dose Level 3.2 mg/m^2, Day 8 (n=5)
quantity kind: half-life (h)

- chemical smiles: "CNC(=O)c1ccccc1Sc1ccc2c(/C=C/c3ccccn3)n[nH]c2c1"
  reported measurement: 1.8

----------
# protocol: Axitinib plasma pharmacokinetics, phase 1 trial
# Type: in vivo
# test parameters: human, plasma, oral, 3.2 mg/m2, Cmax, median (range); Dose Level 3.2 mg/m^2, Day 1 (n=6)
quantity kind: Cmax

- chemical smiles: "CNC(=O)c1ccccc1Sc1ccc2c(/C=C/c3ccccn3)n[nH]c2c1"
  reported measurement: "38 ng/mL"

----------
# protocol: Axitinib plasma pharmacokinetics, phase 1 trial
# Type: in vivo
# test parameters: human, plasma, oral, 2.4 mg/m2, AUC0–8h, median (range); Dose Level 2.4 mg/m^2, Day 1 (n=12)

- compound: "CNC(=O)c1ccccc1Sc1ccc2c(/C=C/c3ccccn3)n[nH]c2c1 [Axitinib]"
  AUC(0-t) (ng·h/mL): 91

----------
# protocol: Axitinib plasma pharmacokinetics, phase 1 trial
# Type: in vivo
# test parameters: human, plasma, oral
quantity kind: half-life (h)

- chemical smiles: "CNC(=O)c1ccccc1Sc1ccc2c(/C=C/c3ccccn3)n[nH]c2c1"
  reported measurement: 2.4

----------
# protocol: Axitinib plasma pharmacokinetics, phase 1 trial
# Type: in vivo
# test parameters: human, plasma, oral, 3.2 mg/m2, Half life, median (range); Dose Level 3.2 mg/m^2, Day 1 (n=6)

- chemical smiles: "CNC(=O)c1ccccc1Sc1ccc2c(/C=C/c3ccccn3)n[nH]c2c1"
  half-life: "2.6 h"
